Assay: Cytotoxicity against Huh7 cells by XTT assay
Type: cell-based
Settings: human, huh-7
Overview of reported CC50 across a group of compounds:
Number in µM, nothing else.

O=C(OC[C@@H]1C[C@@H](O)[C@H](n2cnc3c(Cl)ncnc32)O1)c1ccccc1 : 70.5

### Prompt Entry `O=C(OC[C@H]1O[C@@H](n2cnc3c(Cl)ncnc32)[C@H](O)[C@@H]1O)c1ccccc1` has what CC50?
### Response 97.3

### Prompt Try this compound next: O=C(OCC(CO)CCn1cnc2c(Cl)ncnc21)c1ccccc1 (stereo not given)
### Response 108

----------
Assay: Cytotoxicity against Huh7 cells by XTT assay
Assay type: cell-based
Settings: human, huh-7
quantity: CC50

Some molecules with known CC50 results, for comparison:
CC(C)(C)C(=O)OC[C@H]1O[C@@H](n2cnc3c(Cl)ncnc32)C[C@@H]1O : 177 µM
O[C@H]1C[C@H](n2cnc3c(Cl)ncnc32)O[C@@H]1COCc1ccccc1 : 178 µM
CN(C)c1ncnc2c1ncn2[C@H]1C[C@H](O)[C@@H](COC(=O)c2ccccc2)O1 : > 200 µM
O=C(OC[C@H]1O[C@@H](n2cnc3c(Cl)ncnc32)C[C@@H]1O)c1ccccc1 : 111 µM

### Prompt Entry `COc1ccc(C(=O)OC[C@H]2O[C@@H](n3cnc4c(Cl)ncnc43)C[C@@H]2O)cc1` has what CC50?
### Response 76.4 µM
